Measured koff accompanies every entry in the list below.
- Measured on: T1, biotinylated recombinant cynomolgus monkey trimeric ARG2 enzyme (Avi-cynoARG2-His10) (cynomolgus monkey, UniProt P78540 23-354 (human entry), biotinylated)
- T1 construct: also called cynomolgus ARG2
- T1 chain: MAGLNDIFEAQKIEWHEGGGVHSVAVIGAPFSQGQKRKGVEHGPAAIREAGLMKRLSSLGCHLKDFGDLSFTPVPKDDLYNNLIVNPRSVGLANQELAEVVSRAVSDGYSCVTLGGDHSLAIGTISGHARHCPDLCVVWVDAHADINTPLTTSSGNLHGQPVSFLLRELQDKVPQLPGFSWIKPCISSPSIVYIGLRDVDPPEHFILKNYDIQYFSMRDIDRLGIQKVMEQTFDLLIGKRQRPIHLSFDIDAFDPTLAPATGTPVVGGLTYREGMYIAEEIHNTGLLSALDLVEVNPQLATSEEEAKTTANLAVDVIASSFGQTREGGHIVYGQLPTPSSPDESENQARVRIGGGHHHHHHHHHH
- Assay: BLI (OctetRED), biotinylated cyno ARG2 on streptavidin, Fab as analyte
Just the number in s⁻¹, nothing appended.

1) C0021133 Fab (Fab, V domains shown, Human Fab) VH: EVQLLESGGGLVQPGGSLRLSCAASGFTFRYDHHVWVRQAPGKGLEWVSAISGSGGSTYYADSVKGRFTISRDNSKNTLYLQMNSLRAEDTAVYYCARLRADLGLYMDLWGRGTLVTVSS VL: QSVLTQPPSVSAAPGQKVTVSCSGSSSNIGNHYVSWYQQLPGTAPKLLIYDTTVLSSGIPDRFSGSKSGTSATLGITGLQTGDEADYYCGTWDELTSNLVFGGGTKLTVL    0.000549
2) C0021139 Fab (Fab, V domains shown, Human Fab; also called LO C0021139 Fab) VH: EVQLLESGGGLVQPGGSLRLSCAASGFTFQYDYQVWVRQAPGKGLEWVSAISGSGGSTYYADSVKGRFTISRDNSKNTLYLQMNSLRAEDTAVYYCARLRADLGLYMDLWGRGTLVTVSS VL: QSVLTQPPSVSAAPGQKVTISCSGSSSNIGNHYVSWYQQLPGTAPKLLIYDNSERTSGIPDRFSGSKSGTSATLGITGLQTGDEADYYCGTWDELTSNLVFGGGTKLTVL    0.000724
3) C0021092 Fab (Fab, V domains shown, Human Fab) VH: EVQLLESGGGLVQPGGSLRLSCAASGFTFSRYAMSWVRQAPGKGLEWVSAHTHSPGSTYYADSVKGRFTISRDNSKNTLYLQMNSLRAEDTAVYYCARLRADLGLYMDLWGRGTLVTVSS VL: QSVLTQPPSVSAAPGQKVTISCSGSSSNIGNHYVSWYQQLPGTAPKLLIYNSVARPSGIPDRFSGSKSGTSATLGITGLQTGDEADYYCGTWDSSLSALVFGGGTKLTVL    0.000726

stdin: For the binder C0021128 Fab (Fab, V domains shown, Human Fab) VH: EVQLLESGGGLVQPGGSLRLSCAASGFTFQYEVAAWVRQAPGKGLEWVSAISGPIPKGYYADSVKGRFTISRDNSKNTLYLQMNSLRAEDTAVYYCARLRADLGLYMDLWGRGTLVTVSS VL: QSVLTQPPSVSAAPGQKVTISCSGSSSNIGNHYVSWYQQLPGTAPKLLIYDNAIESSGIPDRFSGSKSGTSATLGITGLQTGDGADYYCGTWDSNLSALVFGGGTKLTVL , what koff is on record?
stdout: 0.000771

stdin: May I ask what koff has been recorded for C0021065 Fab (Fab, V domains shown, Human Fab) VH: EVQLLESGGGLVQPGGSLRLSCAASGFTFSSYAMSWVRQAPGKGPEWVSAISGFSPYYADSVKGRFTISRDNSRNTLYLQMNSLRAEDTAVYYCARLRADLGLYMDLWGRGTLVTVSS VL: QSVLTQPPSVSAAPGQKVTISCSGSSSNIGNHYVSWYQQLPGTAPKLLIYDTDHMASGIPDRFSGSKSGTSATLGITGLQTGDEADYYCGTWDSSLSALVFGGGTKLTVL ?
stdout: 0.000782

stdin: Please give the measured koff for this binder: C0021061 Fab (Fab, V domains shown, Human Fab) VH: EVQLLESGGGLVQPGGSLRLSCAASGFTFSSYAMSWVRQAPGKGLEWVSAKPTDAGSTYYADSVKGRFTISRDNSKNTLYLQMNSLRAEDTAVYYCARLRADLGLYMDLWGRGTLVTVSS VL: QSVLTQPPSVSAAPGQKVTISCSGSSSNIGNHYVSWYQQLPGTAPKLLIYNTVYPKSGIPDRFSGSKSGTSATLGITGLQTGDEADYYCGTWDSSLSALVFGGGTKLTVL
stdout: 0.000296

stdin: I have this binder here, C0021022 Fab (Fab, V domains shown, Human Fab) VH: EVQLLESGGGLVQPGGSLRLSCAASGFTFSSYAMSWVRQAPGKGPEWVSAISGFSPYYADSVKGRFTISRDNSKNTLYLQMNSLRAEDTAVYYCARLRADLGLYMDLWGRGTLVTVSS VL: QSVLTQPPSVSAAPGQKVTISCSGSSSNIGNHYVSWYQQLPGTAPKLLIYDNSERPSGIPDRFSGSKSGTSATLGITGLQTGDEADYYCGTWDSSLSALVFGGGTKLTVL , and I need its recorded koff.
stdout: 0.00117
